biological target: EPHB2 (UniProt P29323); assay: phosphorylation enrichment, bacterial display (enrichment ratio); higher = better substrate or ligand; peptides without Tyr show the background;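 note: 11-residue human phosphosite peptides and single-mutation variants displayed on the E. coli surface, counted by deep sequencing, each peptide's frequency after selection divided by its frequency in the unselected input library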;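 note: frequency after pTyr selection over input frequency; kinase dosed for 20-30% of maximal phosphorylation in three min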
Sequence (P29323 whole entry, looked up): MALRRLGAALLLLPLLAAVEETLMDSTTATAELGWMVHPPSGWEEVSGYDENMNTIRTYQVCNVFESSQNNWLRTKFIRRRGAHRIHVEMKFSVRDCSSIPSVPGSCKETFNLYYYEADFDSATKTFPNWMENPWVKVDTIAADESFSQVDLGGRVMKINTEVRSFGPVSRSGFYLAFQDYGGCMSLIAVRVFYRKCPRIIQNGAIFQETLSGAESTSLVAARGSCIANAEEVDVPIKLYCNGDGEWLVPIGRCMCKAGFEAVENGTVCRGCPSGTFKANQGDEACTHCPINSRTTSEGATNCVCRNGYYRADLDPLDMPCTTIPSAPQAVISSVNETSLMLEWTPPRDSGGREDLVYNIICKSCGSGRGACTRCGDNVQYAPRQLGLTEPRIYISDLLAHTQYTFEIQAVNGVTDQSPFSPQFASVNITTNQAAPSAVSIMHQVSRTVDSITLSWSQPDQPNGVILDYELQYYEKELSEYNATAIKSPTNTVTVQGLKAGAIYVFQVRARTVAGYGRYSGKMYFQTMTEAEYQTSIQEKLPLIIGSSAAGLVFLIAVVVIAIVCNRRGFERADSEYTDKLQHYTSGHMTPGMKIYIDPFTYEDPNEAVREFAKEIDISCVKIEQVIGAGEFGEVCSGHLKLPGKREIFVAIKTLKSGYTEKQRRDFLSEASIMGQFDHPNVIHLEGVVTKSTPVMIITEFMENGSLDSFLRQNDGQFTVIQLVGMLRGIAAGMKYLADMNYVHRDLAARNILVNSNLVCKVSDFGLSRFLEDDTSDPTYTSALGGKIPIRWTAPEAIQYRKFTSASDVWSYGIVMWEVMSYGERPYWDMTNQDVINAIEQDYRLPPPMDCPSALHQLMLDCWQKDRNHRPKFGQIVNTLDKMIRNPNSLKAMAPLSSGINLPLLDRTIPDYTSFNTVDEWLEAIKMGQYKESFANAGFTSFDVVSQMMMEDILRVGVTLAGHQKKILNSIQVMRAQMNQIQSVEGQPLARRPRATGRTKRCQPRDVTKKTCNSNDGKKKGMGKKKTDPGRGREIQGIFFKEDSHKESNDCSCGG
EXPERIMENTAL_ENDPOINT: phosphorylation enrichment
Numbers only.

Use these answered entries as a reference point.
DGTVHYVDEKG [IFT140_Y216]
0.682
EVGHVYLFLQP [ITGA2B_Y360_R358H]
0.679
NCLREYVAGRF [CRB1_Y711]
0.554
PSAEGYQDVRD [ABLIM1_Y439]
0.649
FKPGFYNLKEK [LAMA1_Y490_C485Y_YF]
0.396
EATKVYLDDPT [G6PD_Y322_G321V]
0.558
SSENPCATIKD [MEGF10_Y1030_Y1030C]
0.494
PSQRRYVYYYS [PTEN_Y174]
0.459
EIASHYRHLLR [ZBTB46_Y14_T11A]
0.42
WDLSEYSFKDP [ITGA3_Y237_YF]
0.618

Give me phosphorylation enrichment for each of these sequences, listed below.
1. ARTNEYKIIRS [INA_Y87_T92S]
2. VDFQPYRKHKF [TEX37_Y28_YF]
3. RRIHSYRGYLW [VHL_Y112_H115Y]
4. PFSNPYENSLI [EPOR_Y489_YF]
5. DDHFTYSRFPW [LY75_Y888_YF]
6. GSERRYSREGG [PTPRN2_Y139]

1: 0.372; 2: 0.32; 3: 0.605; 4: 0.929; 5: 5.18; 6: 0.413

Give me phosphorylation enrichment for each of these sequences, listed below.
1. FLQEIYNSNNQ [FGG_Y140_YF]
2. FKNGDYNEVMK [LCT_Y1638]
3. AHAGKYGAEAL [HBA1_Y25_E24K]
4. MANYVYKAGPS [MAML2_Y515_M514V]
5. TTICKYSTPME [GUCY2C_Y839]

0.602
0.415
0.338
0.455
0.488

Any idea what its phosphorylation enrichment is? The sequence is QQPGPYDRPGA [HNRNPH2_Y210_R206Q]
0.493

====

biological target: Hck (UniProt P08631); test: phosphorylation enrichment, bacterial display (enrichment ratio); higher = better substrate or ligand; peptides without Tyr show the background
Sequence (P08631 whole entry, looked up): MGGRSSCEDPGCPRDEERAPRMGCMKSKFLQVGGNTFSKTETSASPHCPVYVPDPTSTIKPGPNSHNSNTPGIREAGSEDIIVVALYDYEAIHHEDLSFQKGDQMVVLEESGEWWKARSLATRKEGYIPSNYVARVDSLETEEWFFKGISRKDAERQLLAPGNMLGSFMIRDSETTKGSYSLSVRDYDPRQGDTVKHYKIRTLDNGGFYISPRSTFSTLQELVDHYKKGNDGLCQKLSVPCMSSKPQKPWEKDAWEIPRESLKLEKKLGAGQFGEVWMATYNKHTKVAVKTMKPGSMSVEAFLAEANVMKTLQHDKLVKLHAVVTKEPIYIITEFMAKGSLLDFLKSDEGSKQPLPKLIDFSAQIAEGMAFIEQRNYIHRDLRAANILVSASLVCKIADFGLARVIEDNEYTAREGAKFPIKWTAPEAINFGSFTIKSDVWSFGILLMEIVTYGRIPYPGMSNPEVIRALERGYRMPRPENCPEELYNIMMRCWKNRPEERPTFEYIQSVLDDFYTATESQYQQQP
Consider the following sequences; for each one, report its phosphorylation enrichment.
One number for each entry.

Use these answered entries as a reference point.
ARTNEYKIIRS [INA_Y87_T92S]
0.316
REVPVYIGEDS [SYNM_Y460]
0.659
IIGNGYYFRVF [MYBPC3_Y1135]
0.373
NCFKFYMSDDI [ATRX_Y204_YF]
0.512
LGPDGYSTVDR [ARVCF_Y901]
0.405

Give me phosphorylation enrichment for each of these sequences, listed below.
1. ALTRSYVREKV [CYP2C8_Y243_I244V]
2. PDMHSYVVRFN [GRIN2D_Y732_M733V_YF]
3. SKKSTYRALLD [GANC_Y43_Q44R]
4. VTRANYFIRDE [GNAS_Y339_K338N]

0.437
0.431
0.406
0.388

====

target: Hck (UniProt P08631); assay: phosphorylation enrichment, bacterial display (enrichment ratio); higher = better substrate or ligand; peptides without Tyr show the background
Consider the following sequences; for each one, report its phosphorylation enrichment.
Give bare numbers.

SGFESYGSSSS [RPA2_Y9_Y14S]
0.484
PFAEPYADFGG [APBA1_Y187_S184A_YF]
0.673
RFVTRHIFNRE [HLA-DQB1_Y62_Y62H_YF]
0.431
MACDRYVAICS [OR8D4_Y123]
0.45
MDNQEYKDAYT [BRDT_Y331_K336T]
0.673
TGVWDYIHVVD [GALE_Y241_R239W]
0.566
KSLFHYRQFSA [CPS1_Y1491_YF]
0.42
ECKHLYSRKEG [PTPN11_Y263_L261H]
0.329
HGAKVYIDPFT [EPHB4_Y590_T587A]
0.792
LDPIQYSKHPP [SQSTM1_Y433_T430P]
0.795

Give me phosphorylation enrichment for each of these sequences, listed below.
1. PRSRSYFSTSI [REPS2_Y462_S463F]
2. EFENSYIFDIN [GAB1_Y83]
3. LLSVAYQNVVG [YWHAG_Y49_K50Q]

1. 0.691
2. 0.488
3. 0.632

Give me phosphorylation enrichment for each of these sequences, listed below.
1. LQLLGYRPVFS [CHST6_Y358_YF]
2. AAYNRYDQERF [CDC73_Y293]
3. ENELTYYCYKK [CD59_Y86_C89Y]
4. NDHHFYLEGTL [ALDOB_Y223_V222F]

1. 0.697
2. 0.447
3. 4.79
4. 0.43

Give me phosphorylation enrichment for each of these sequences, listed below.
1. QLHREYCLSPR [HJURP_Y445]
2. EEQFFYEKAIL [BCCIP_Y257_E254Q]
3. LEDEVCAQKMK [TPM2_Y261_Y261C]
4. SSRKEYFIGGG [GYPC_Y126]

1. 0.889
2. 0.654
3. 0.832
4. 0.486

Give me phosphorylation enrichment for each of these sequences, listed below.
1. DKATEYIQFMR [MAX_Y70_YF]
2. EEGRVYVFHLS [ITGAE_Y549_R552H_YF]

1: 0.69; 2: 0.46

Give me phosphorylation enrichment for each of these sequences, listed below.
1. PSQRRYVYYYS [PTEN_Y174]
2. TLQNMYGCDVG [HLA-B_Y123_S121N]
3. LQTFRYHGLSM [PDHA1_Y289_H292L_YF]
4. QDRTFYESVRT [SPEN_Y633_YF]
5. DHPSEYAARQL [ANXA13_Y90_R86H]
6. FEPDAYDDLDQ [ELP5_Y302_YF]
7. IDFARYWHGDD [MMP11_Y162]
8. DPHECYAKVFD [ALB_Y394]

1. 0.497
2. 0.625
3. 0.578
4. 2.43
5. 0.525
6. 0.571
7. 0.463
8. 0.582

Give me phosphorylation enrichment for each of these sequences, listed below.
1. AVAFLYYKSIG [ADGRL4_Y301_V300L]
2. HNQDGYSYLSR [LDLR_Y845_P848L]
3. LGGAMYFLEAE [PKHD1_Y452_YF]
4. NCFKYYMSDDI [ATRX_Y204]
5. KRISCYEASFQ [PFKFB3_Y194_YF]
6. INASGYRVGPA [ACSM1_Y477_I479V]
7. RRGMPYGGLGD [TGM1_Y312_R315L]
8. FDSPFYRDSLP [TSC1_Y508]

0.518
0.793
1.07
0.548
0.49
0.643
0.391
0.47

Give me phosphorylation enrichment for each of these sequences, listed below.
1. WDSSGYWTPEE [PAPPA2_Y908_C903W]
2. RLQAAYNLVKR [PFKM_Y103_R100Q]
3. FLEKFYKFGSR [NNMT_Y25_YF]
4. HVIKFYGACSQ [RET_Y791_L790F]
5. NPQKSYFILLY [WAS_Y83_R86L]
6. RIFDFYSARKA [STOX1_Y858_YF]

[0.449, 0.633, 0.341, 0.779, 0.434, 1.33]
